B1: HDV Ribozyme (parent)
chain: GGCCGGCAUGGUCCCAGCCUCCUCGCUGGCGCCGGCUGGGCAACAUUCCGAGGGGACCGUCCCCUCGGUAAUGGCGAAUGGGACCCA

# Variants of: B1
# PROTOCOL DESCRIPTION: self-cleavage, relative activity (ratio to wild type); higher = more cleavage; co-transcriptional
Quick rule: self-cleavage of at least 0.2 means Satisfied, below that means Not satisfied.

Completed entries (count: 3):
   variant_label  discrete_label
0      G59C U65G       Satisfied
1      G11U C36A   Not satisfied
2      A42G U65C       Satisfied

Determine whether measured self-cleavage meets or exceeds 0.2 for U46A G82U Not satisfied

Does the variant A45G U47G have recorded self-cleavage that is 0.2 or more? Satisfied

Decide: self-cleavage of U9A A43C >= 0.2? Satisfied

Does self-cleavage meet or surpass 0.2 for C14A C64U ? Satisfied

Record C13A G29U ; criterion: self-cleavage no lower than 0.2. Met? Not satisfied

hey, is self-cleavage for this one >= 0.2? U9A C18G Satisfied
